- Assay Remarks: binders of probe aHhip on microarray, primary screen, stem cell growth factor project, biochemical, small-molecule microarray, fluorescence 635/667 (AID 1087);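 also: score merges spot fluorescence at 667nm with spot signal to noise ratio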
- Assay Setup: higher = more signal
Parameter Measured: composite z-score
Enter a number only.

What value of measured composite z-score is listed for CN(C)CCCC[C@@H]1NC(=O)[C@@H]2C[C@H](C(=O)NCCCCCNC(=O)CS)[C@H](c3cccc(OCCO)c3)N2C1=O ?
0.259

What value of measured composite z-score is listed for C=CCNC(=O)[C@@H]1[C@H]2C(=O)O[C@H](c3ccccc3)[C@H](c3ccccc3)N2[C@H](c2ccc(O)cc2)[C@@]12C(=O)N(C(=O)OCCOC)c1ccc(C#Cc3ccc(OC)cc3)cc12 ?
-0.0994

What value of measured composite z-score is listed for COCCCNC(=O)[C@@]1(Cc2ccccc2)N=C(c2ccc(OCCCO)cc2)O[C@H]1c1ccccc1N=[N+]=[N-] ?
-0.121

What value of measured composite z-score is listed for CC(C)(C)OC(=O)CC[C@@]1(C(=O)NCc2ccccc2)N=C(c2ccc(OCCCO)cc2)O[C@@H]1c1ccccc1CN=[N+]=[N-] ?
-0.148

What value of measured composite z-score is listed for CC(C)C(CO)N1C(=O)[C@@H]2[C@H]3C(=O)OCC=C[C@H]3OC23C=CCN(Cc2ccccc2)C(=O)[C@@H]13 (some centres not stated) ?
-0.0994

What value of measured composite z-score is listed for COc1ccc([Si](C)(C)[C@@H]2[C@@H](CC(=O)N3CCC[C@H]3CO)O[C@]3(C(=O)N(Cc4ccc(I)cc4)c4ccccc43)[C@H]2C)cc1 ?
0.281

What value of measured composite z-score is listed for O=C1N(CCS(=O)(=O)c2ccccc2)Cc2ccccc2[C@@H]2OC(c3ccc(OCCCO)cc3)=N[C@]12Cc1ccccc1 ?
-0.338

----------
- Study System: NADPH oxidase 5 (Homo sapiens)
- Assay Remarks: NOX5-dependent H2O2 signal modulators, primary screen, NOX inhibitor project, cell-based, HEK293-NOX5, Amplex Red fluorescence (AID 1161)
- Assay Setup: HEK293-NOX5, ionomycin, 45 min, higher = more signal
Please provide measured z-score for the entries that follow.
Enter a number only.

What value of measured z-score is listed for C=CCNC(=O)[C@@H]1[C@H]2C(=O)O[C@H](c3ccccc3)[C@H](c3ccccc3)N2[C@H](c2ccc(O)cc2)[C@@]12C(=O)Nc1ccc(C#Cc3ccc(OC)cc3)cc12 ?
0.0881

What value of measured z-score is listed for CC(C)(C)OC(=O)CC[C@]1(C(=O)NCc2ccccc2)N=C(c2ccc(OCCCO)cc2)O[C@H]1c1ccccc1N=[N+]=[N-] ?
-2.3

What value of measured z-score is listed for CC(C)C[C@@H]1NC(=O)[C@@]23C(=O)N[C@@H](Cc4ccccc4)C2[C@H](C)[C@@]2(C)O[C@H]2C3/C=C/CC/C=C/CNC(=O)[C@@H](C)NC1=O (some centres not stated) ?
-0.181

What value of measured z-score is listed for Cc1ccc(N2C(=O)c3ccccc3[C@](C)(C(=O)NCC(F)(F)F)[C@@H]2c2ccc(CO)cc2)nc1 ?
1.22

What value of measured z-score is listed for CC(C)(C)OC(=O)CC[C@@]1(C(=O)N2CCOCC2)N=C(c2ccc(OCCCO)cc2)O[C@@H]1c1ccccc1 ?
-0.0438

What value of measured z-score is listed for CN(C)CCCC[C@@H]1NC(=O)[C@@H]2C[C@H](C(=O)NCCCCCNC(=O)CS)[C@H](c3cccc(OCCO)c3)N2C1=O ?
2.19

What value of measured z-score is listed for CC(C)CNC(=O)[C@@H]1c2ccccc2C(=O)N(Cc2ccc(OC(F)(F)F)cc2)[C@H]1c1ccc(CO)cc1 ?
1.57

----------
- System: Lefty1
- Assay Remarks: Lefty1 binders on small-molecule microarrays, primary screen, biochemical, small-molecule microarray, 635/667 nm fluorescence (AID 1139)
- Assay Setup: small-molecule microarray binding, fluorescence 635/667; higher = more signal
Please provide measured composite z-score for the entries that follow.
Enter a number only.

What value of measured composite z-score is listed for COCCCNC(=O)[C@@]1(Cc2ccccc2)N=C(c2ccc(OCCCO)cc2)O[C@H]1c1ccccc1N=[N+]=[N-] ?
0.269

What value of measured composite z-score is listed for CC(C)[C@@H](C(=O)O)n1cc(-c2ccccn2)nn1 ?
0.0234

What value of measured composite z-score is listed for COc1ccc([Si](C)(C)[C@@H]2[C@@H](CC(=O)N3CCC[C@H]3CO)O[C@]3(C(=O)N(Cc4ccc(N5CCC5=O)cc4)c4ccccc43)[C@H]2C)cc1 ?
1.04

What value of measured composite z-score is listed for COCCCNC(=O)[C@@]1(CCS(=O)(=O)c2ccccc2)N=C(c2ccc(OCCCO)cc2)O[C@H]1c1ccccc1CN=[N+]=[N-] ?
0.578

What value of measured composite z-score is listed for C[N+](C)(C)CCCCNC(=O)[C@@H]1C[C@@H]2C(=O)NCC(=O)N2[C@@H]1c1cccc(OCCO)c1 ?
1.6

What value of measured composite z-score is listed for COc1ccc([Si](C)(C)[C@H]2[C@H](CC(=O)N(CCO)Cc3ccccc3)O[C@@]3(C(=O)N(Cc4cccc(N5C(=O)COc6ccccc65)c4)c4ccccc43)[C@@H]2C)cc1 ?
1.26

What value of measured composite z-score is listed for COCCOC(=O)N1C(=O)[C@@]2(c3cc(C#CCCO)ccc31)[C@H](c1ccccc1OCCO)N1[C@H](c3ccccc3)[C@H](c3ccccc3)OC(=O)[C@H]1[C@@H]2C(=O)NC[C@H](O)c1ccccc1 ?
1.61

What value of measured composite z-score is listed for C=CCN1C(=O)[C@]2(O[C@H](CCn3cc([C@H](O)c4ccccc4)nn3)[C@@H]([Si](C)(C)c3ccc(OC)cc3)[C@@H]2C)c2cc(N3CCOC3=O)ccc21 ?
-0.351

What value of measured composite z-score is listed for C=CCC1(CC=C)C[C@H]2CO[C@H](c3ccc(OC)cc3)N2C1=O ?
0.458

What value of measured composite z-score is listed for COc1ccc([Si](C)(C)[C@H]2[C@H](CCO)O[C@@]3(C(=O)N(Cc4ccc(N5C(=O)c6cccc7cccc5c67)cc4)c4ccccc43)[C@@H]2C)cc1 ?
-0.255

What value of measured composite z-score is listed for COC(=O)c1c2oc(c1C(=O)OC)C(=O)N[C@@H](C(C)C)Cn1nncc1C1(CCCCC1)NC(=O)N[C@H](CO)CC2 ?
0.0278

What value of measured composite z-score is listed for O=C(N1CCCCC1)[C@@]1(Cc2ccccc2)N=C(c2ccc(OCCCO)cc2)O[C@H]1c1ccccc1 ?
-0.341

What value of measured composite z-score is listed for C=CCNC(=O)[C@@H]1[C@H]2C(=O)O[C@H](c3ccccc3)[C@H](c3ccccc3)N2[C@H](c2ccc(O)cc2)[C@@]12C(=O)Nc1ccc(C#Cc3ccc(OC)cc3)cc12 ?
0.849

What value of measured composite z-score is listed for COC(=O)[C@@]1(CCC(=O)OC(C)(C)C)COC(c2ccc(OCCCO)cc2)=N1 ?
-2.55

What value of measured composite z-score is listed for COc1ccc([Si](C)(C)[C@@H]2[C@@H](CC(=O)N3CCC[C@H]3CO)O[C@]3(C(=O)N(Cc4ccc(I)cc4)c4ccccc43)[C@H]2C)cc1 ?
1.12

What value of measured composite z-score is listed for C=C(C(=O)CC[C@@H](OC(C)=O)c1ccccc1OCCO)C(C)C ?
0.342

What value of measured composite z-score is listed for COc1ccc(C#Cc2ccc3c(c2)[C@]2(C(=O)N3)[C@H](c3ccc(O)cc3)N3[C@H](c4ccccc4)[C@H](c4ccccc4)OC(=O)[C@H]3[C@@H]2C(=O)N2CCN(c3ncccn3)CC2)cc1 ?
-0.151

What value of measured composite z-score is listed for C=CCC(OC(C)=O)[C@@H]1[C@@H](N(Cc2cc3ccccc3o2)C(=O)c2ccc(-c3ccccc3)cc2)c2cc(OCCCO)ccc2N1C(=O)c1ccc(-c2ccccc2)cc1 (some centres not stated) ?
-0.147

What value of measured composite z-score is listed for C=CCNC(=O)[C@@H]1[C@H]2C(=O)O[C@H](c3ccccc3)[C@H](c3ccccc3)N2[C@H](c2ccc(O)cc2)[C@@]12C(=O)N(C(=O)OCCOC)c1ccc(C#Cc3ccc(OC)cc3)cc12 ?
0.544

What value of measured composite z-score is listed for COc1ccc([Si](C)(C)[C@H]2[C@H](CC(=O)N3Cc4ccccc4C[C@H]3CO)O[C@@]3(C(=O)N(Cc4cccc(N5C(=O)COc6ccccc65)c4)c4ccccc43)[C@@H]2C)cc1 ?
1.44

What value of measured composite z-score is listed for COC(=O)C(CC#Cc1ccc2c(c1)[C@]1(C(=O)N2)[C@H](c2ccccc2OCCO)N2[C@H](c3ccccc3)[C@H](c3ccccc3)OC(=O)[C@H]2[C@@H]1C(=O)N1CCCCCCC1)C(=O)OC ?
1.73

What value of measured composite z-score is listed for C=CCNC(=O)[C@H]1[C@@H]2C(=O)O[C@@H](c3ccccc3)[C@@H](c3ccccc3)N2[C@@H](c2ccc(OCCO)cc2)[C@]12C(=O)Nc1ccc(C#CCCO)cc12 ?
0.909

What value of measured composite z-score is listed for C=C1C=C(Br)C2(OCCCO2)[C@H]2OC12 (some centres not stated) ?
0.743

What value of measured composite z-score is listed for O=C1c2ccccc2C(=O)c2cc([C@H]3Oc4ccccc4S(=O)(=O)N4CCC[C@@H]34)ccc21 ?
-0.534

What value of measured composite z-score is listed for C=CC[C@]1(C(=O)N(C)C)N=C(c2ccc(OCCCO)cc2)O[C@H]1c1ccccc1CN=[N+]=[N-] ?
-0.168

What value of measured composite z-score is listed for Cc1ccc(S[C@]2(C(=O)NCC(C)C)CC(=O)N(C(C)C)[C@@H]2c2ccc(CO)cc2)cc1 ?
-0.477

What value of measured composite z-score is listed for C=C(COC)C(=O)CC[C@@H](OC(=O)c1ccccc1-c1ccccc1C(=O)O)c1cccc(OCCO)c1 ?
0.299
